- Test system: HLA-A*0201 transgenic HHD mice
- assay overview: Tetramer-positive CD8 T cells in draining lymph nodes of vaccinated HHD mice
- Format: in vivo, mouse
- reported conditions: HHD mice vaccinated with polypeptide, tetramers
observable: Responding mice (response to at least one peptide) (%)

>  <substance>
YLEEITGYL-YLEYRQVPV-YLQVNSLQTV (SEQ ID No: 6) (YLEEITGYLYLEYRQVPVYLQVNSLQTV; Poly-4) [polypeptide variant, arrangement N-M-T]

>  <readout number>
62

$$$$
>  <substance>
YLEYRQVPV-YLQVNSLQTV-YLEEITGYL (SEQ ID No: 4) (YLEYRQVPVYLQVNSLQTVYLEEITGYL; Poly-2) [polypeptide variant, arrangement M-T-N]

>  <readout number>
57

$$$$
>  <substance>
YLQVNSLQTV-YLEYRQVPV-YLEEITGYL (SEQ ID No: 2) (YLQVNSLQTVYLEYRQVPVYLEEITGYL; Poly-6) [polypeptide variant, arrangement T-M-N]

>  <readout number>
83

$$$$
>  <substance>
YLQVNSLQTV-YLEEITGYL-YLEYRQVPV (SEQ ID No: 7) (YLQVNSLQTVYLEEITGYLYLEYRQVPV; Poly-5) [polypeptide variant, arrangement T-N-M]

>  <readout number>
62

$$$$
>  <substance>
YLEEITGYL-YLQVNSLQTV-YLEYRQVPV (SEQ ID No: 5) (YLEEITGYLYLQVNSLQTVYLEYRQVPV; Poly-3) [polypeptide variant, arrangement N-T-M]

>  <readout number>
87

$$$$
>  <substance>
YLEYRQVPV-YLEEITGYL-YLQVNSLQTV (SEQ ID No: 3) (YLEYRQVPVYLEEITGYLYLQVNSLQTV; Poly-1) [polypeptide variant of MAGE-A248V9, HER-2/neu402Y and TERT988Y, arrangement M-N-T]

>  <readout number>
100

$$$$
